Cited source: patent US20060069132A1

Task for the reader: assign each of the following molecules its reported Surinam Grass plant response rating (0 to 100 scale).
- Tested on: Surinam grass
- test: Test B pre-/postemergence herbicide test
- Format: in vivo, Urochloa decumbens
- test_settings: 125 g ai/ha; 0 = no effect, 100 = complete control; preemergence
- Protocol: […] At the same time, plants selected from these crop and weed species and also blackgrass (Alopecurus myosuroides Huds.), wheat (Triticum aestivum L.) and wild oat (Avena fatua L.) were treated with postemergence applications of test chemicals formulated in the same manner. […] Treated plants and controls were maintained in a greenhouse for 13 to 15 days, after which time all species were compared to controls and visually evaluated. […]
One number for each entry.

entry_smiles	assay_value
C#CCNC(=O)c1ccc(F)c(NC(=O)c2cc(C3(C)CC3)nn2CC)c1	10

Okay, here is my list. What is Surinam Grass plant response rating (0 to 100 scale) for each of these?
1. CCn1nc(C(C)(C)C)cc1C(=O)Nc1cccc(OC(C)C)c1
2. CCCc1nn(C(C)(C)C)cc1C(=O)Nc1cccc(C(=O)N(CC)CC)c1

1. 20
2. 10

I would be grateful if you could share the reported Surinam Grass plant response rating (0 to 100 scale) for "CCNC(=O)c1cncc(NC(=O)c2cc(C(C)(C)C)nn2CC)n1" .
0
